test.details: The drug is tested on WLS-098 corresponding to human gut metagenome with ENA study accession number: PRJEB37062 and ENA sample accession number: ERS12561754 for biotransformation under anaerobic condition. The drug concentrations were measured over 9 timepoints collected between 0 and 24 hours of incubation by liquid-chromatography-coupled mass spectrometry (LC–MS); further: call rule not given here
details: 2 µM

molecule: CCN(C(C)=O)c1cccc(-c2ccnc3c(C#N)cnn23)c1
Bacterial Biotransformation: Compound metabolized

molecule: C[C@@H](c1ncncc1F)[C@](O)(Cn1cncn1)c1ccc(F)cc1F
Bacterial Biotransformation: Compound metabolized

molecule: COc1cc2nc(N3CCN(C(=O)C4CCCO4)CC3)nc(N)c2cc1OC (configuration not stated)
Bacterial Biotransformation: Compound metabolized

molecule: CN(C)C(=O)Oc1cccc([N+](C)(C)C)c1.[Br-] [NEOSTIGMINE BROMIDE]
Bacterial Biotransformation: Compound NOT metabolized

molecule: COc1cc(NC(C)CCCN)c2ncccc2c1.O=P(O)(O)O.O=P(O)(O)O (configuration not stated) [PRIMAQUINE PHOSPHATE]
Bacterial Biotransformation: Compound metabolized

molecule: COC(=O)C(c1ccccc1)C1CCCCN1 (configuration not stated) [METHYLPHENIDATE]
Bacterial Biotransformation: Compound NOT metabolized

molecule: O=C1N=C([O-])NC1(c1ccccc1)c1ccccc1.[Na+] [PHENYTOIN SODIUM]
Bacterial Biotransformation: Compound metabolized

molecule: O=C1CC2(CCCC2)CC(=O)N1CCCCN1CCN(c2ncccn2)CC1
Bacterial Biotransformation: Compound metabolized

molecule: C=C[C@H]1CN2CC[C@H]1C[C@H]2[C@H](O)c1ccnc2ccc(OC)cc12.C=C[C@H]1CN2CC[C@H]1C[C@H]2[C@H](O)c1ccnc2ccc(OC)cc12.O.O.O=S(=O)(O)O [QUININE SULFATE]
Bacterial Biotransformation: Compound metabolized

molecule: CC(C)(C)NC[C@H](O)COc1nsnc1N1CCOCC1.O=C(O)/C=C\C(=O)O [TIMOLOL MALEATE]
Bacterial Biotransformation: Compound NOT metabolized

molecule: N#Cc1ccc2[nH]cc(CCCCN3CCN(c4ccc5oc(C(N)=O)cc5c4)CC3)c2c1
Bacterial Biotransformation: Compound metabolized

molecule: CC(C)[C@H]1CC[C@H](C(=O)N[C@H](Cc2ccccc2)C(=O)O)CC1 [NATEGLINIDE]
Bacterial Biotransformation: Compound metabolized

molecule: COc1cc(C(=O)NCc2ccc(OCCN(C)C)cc2)cc(OC)c1OC [TRIMETHOBENZAMIDE]
Bacterial Biotransformation: Compound NOT metabolized

molecule: O=C1CN2Cc3c(ccc(Cl)c3Cl)N=C2N1 [ANAGRELIDE]
Bacterial Biotransformation: Compound metabolized

molecule: CC(C)NCC(O)COc1ccc(CC(N)=O)cc1 (configuration not stated)
Bacterial Biotransformation: Compound metabolized

molecule: CN1CCN2c3ccccc3Cc3ccccc3C2C1 (configuration not stated)
Bacterial Biotransformation: Compound metabolized

molecule: N[C@@H](Cc1ccc(N(CCCl)CCCl)cc1)C(=O)O
Bacterial Biotransformation: Compound metabolized

molecule: CC(C)C[C@H]1C(=O)N2CCC[C@H]2[C@]2(O)O[C@](NC(=O)[C@@H]3C=C4c5cccc6[nH]c(Br)c(c56)C[C@H]4N(C)C3)(C(C)C)C(=O)N12.CS(=O)(=O)O [BROMOCRIPTINE MESYLATE]
Bacterial Biotransformation: Compound metabolized

molecule: CCS(=O)(=O)CCn1c([N+](=O)[O-])cnc1C
Bacterial Biotransformation: Compound metabolized

molecule: CNNCc1ccc(C(=O)NC(C)C)cc1
Bacterial Biotransformation: Compound metabolized

molecule: CC(=O)OCC(CCn1cnc2cnc(N)nc21)COC(C)=O
Bacterial Biotransformation: Compound metabolized

molecule: CCOc1ccccc1OCCN[C@H](C)Cc1ccc(OC)c(S(N)(=O)=O)c1.Cl [TAMSULOSIN HYDROCHLORIDE]
Bacterial Biotransformation: Compound metabolized

molecule: CCCN1C[C@H](CSC)C[C@@H]2c3cccc4[nH]cc(c34)C[C@H]21.CS(=O)(=O)O [PERGOLIDE MESYLATE]
Bacterial Biotransformation: Compound NOT metabolized

molecule: CCN(C)C(=O)Oc1cccc([C@H](C)N(C)C)c1.O=C(O)C(O)C(O)C(=O)O [RIVASTIGMINE TARTRATE]
Bacterial Biotransformation: Compound NOT metabolized

molecule: CCN1CCCC1CNC(=O)c1cc(S(=O)(=O)CC)c(N)cc1OC (configuration not stated) [AMISULPRIDE]
Bacterial Biotransformation: Compound metabolized

molecule: COCCCC/C(=N\OCCN)c1ccc(C(F)(F)F)cc1.O=C(O)/C=C\C(=O)O [FLUVOXAMINE MALEATE]
Bacterial Biotransformation: Compound NOT metabolized

molecule: C[C@]12C=CC(=O)C=C1CC[C@@H]1[C@@H]2C(=O)C[C@@]2(C)[C@H]1CC[C@]2(O)C(=O)CO
Bacterial Biotransformation: Compound metabolized

molecule: CN(C)CCOC(C)(c1ccccc1)c1ccccn1.O=C(O)CCC(=O)O (configuration not stated) [DOXYLAMINE SUCCINATE]
Bacterial Biotransformation: Compound NOT metabolized

molecule: CC(=O)O[C@H]1C(=O)[C@@]2(C)[C@H]([C@H](OC(=O)c3ccccc3)[C@]3(O)C[C@H](OC(=O)[C@H](O)[C@@H](NC(=O)c4ccccc4)c4ccccc4)C(C)=C1C3(C)C)[C@]1(OC(C)=O)CO[C@@H]1C[C@@H]2O
Bacterial Biotransformation: Compound NOT metabolized

molecule: CN(C)CCOC(c1ccc(Cl)cc1)c1ccccn1.O=C(O)/C=C\C(=O)O (configuration not stated) [CARBINOXAMINE MALEATE]
Bacterial Biotransformation: Compound NOT metabolized

molecule: CN(C)CCC=C1c2ccccc2COc2ccccc21 [DOXEPIN]
Bacterial Biotransformation: Compound metabolized

molecule: CN(C)CCc1c[nH]c2ccc(CS(=O)(=O)N3CCCC3)cc12
Bacterial Biotransformation: Compound metabolized

====

test.details: The drug is tested on Z-018 corresponding to pig gut metagenome with ENA study accession number: PRJEB37062 and ENA sample accession number: ERS12561817 for biotransformation under anaerobic condition. The drug concentrations were measured over 9 timepoints collected between 0 and 24 hours of incubation by liquid-chromatography-coupled mass spectrometry (LC–MS)
details: 2 µM
reported.property: Bacterial Biotransformation

compound: O=C(O)c1cc(/N=N/c2ccc(S(=O)(=O)Nc3ccccn3)cc2)ccc1O [SULFASALAZINE]
reported.property: Bacterial Biotransformation
result: Compound metabolized

compound: CN[C@H]1CC[C@@H](c2ccc(Cl)c(Cl)c2)c2ccccc21 [SERTRALINE]
reported.property: Bacterial Biotransformation
result: Compound metabolized

compound: Cc1cc(C)cc(OCC2CNC(=O)O2)c1 (stereo not drawn) [METAXALONE]
reported.property: Bacterial Biotransformation
result: Compound NOT metabolized

compound: CC(N)C12CC3CC(CC(C3)C1)C2 (stereo not drawn) [RIMANTADINE]
reported.property: Bacterial Biotransformation
result: Compound NOT metabolized

compound: CC(=O)O[C@]1(C(C)=O)CC[C@H]2[C@@H]3C=C(C)C4=CC(=O)CC[C@]4(C)[C@H]3CC[C@@]21C [MEGESTROL ACETATE]
reported.property: Bacterial Biotransformation
result: Compound metabolized

compound: COc1cc(NC(C)CCCN)c2ncccc2c1.O=P(O)(O)O.O=P(O)(O)O (stereo not drawn) [PRIMAQUINE PHOSPHATE]
reported.property: Bacterial Biotransformation
result: Compound NOT metabolized

compound: C[C@]12CCC(=O)C=C1[C@@H]1C[C@@H]1[C@H]1[C@@H]3[C@@H]4C[C@@H]4[C@@]4(CCC(=O)O4)[C@@]3(C)CC[C@@H]12 [DROSPIRENONE]
reported.property: Bacterial Biotransformation
result: Compound metabolized

compound: CCOc1ccc2nc(S(N)(=O)=O)sc2c1 [ETHOXZOLAMIDE]
reported.property: Bacterial Biotransformation
result: Compound NOT metabolized

====

details: human gut metagenome, 24 h, 2 µM
reported.property: Bacterial Biotransformation

compound: COC(=O)C(c1ccccc1)C1CCCCN1 (stereo not given) [METHYLPHENIDATE]
reported.property: Bacterial Biotransformation
result: Compound metabolized

compound: CN1[C@@H]2CC[C@H]1C[C@@H](OC(=O)c1c[nH]c3ccccc13)C2 [TROPISETRON]
reported.property: Bacterial Biotransformation
result: Compound NOT metabolized

compound: COc1ccc(/C=C/C(=O)Nc2ccccc2C(=O)O)cc1OC
reported.property: Bacterial Biotransformation
result: Compound NOT metabolized

compound: C=CC[C@@H]1/C=C(\C)C[C@H](C)C[C@H](OC)[C@H]2O[C@@](O)(C(=O)C(=O)N3CCCC[C@H]3C(=O)O[C@H](/C(C)=C/[C@@H]3CC[C@@H](O)[C@H](OC)C3)[C@H](C)[C@@H](O)CC1=O)[C@H](C)C[C@@H]2OC.O [TACROLIMUS]
reported.property: Bacterial Biotransformation
result: Compound NOT metabolized

compound: CCCC(C)(COC(N)=O)COC(=O)NC(C)C (stereo not given) [CARISOPRODOL]
reported.property: Bacterial Biotransformation
result: Compound metabolized

compound: CCCCC(=O)O[C@]1(C(=O)CO)[C@@H](C)C[C@H]2[C@@H]3CCC4=CC(=O)C=C[C@]4(C)[C@@]3(F)[C@@H](O)C[C@@]21C [BETAMETHASONE VALERATE]
reported.property: Bacterial Biotransformation
result: Compound NOT metabolized

compound: CN(C)CCC=C1c2ccccc2COc2ccccc21 [DOXEPIN]
reported.property: Bacterial Biotransformation
result: Compound metabolized

compound: CCN1CCCC1CNC(=O)c1cc(S(=O)(=O)CC)c(N)cc1OC (stereo not given) [AMISULPRIDE]
reported.property: Bacterial Biotransformation
result: Compound NOT metabolized

compound: CN(C)CCc1c[nH]c2ccc(CS(=O)(=O)N3CCCC3)cc12 [ALMOTRIPTAN]
reported.property: Bacterial Biotransformation
result: Compound NOT metabolized

compound: CC[C@@]1(O)C(=O)OCc2c1cc1n(c2=O)Cc2cc3c(CN(C)C)c(O)ccc3nc2-1 [TOPOTECAN]
reported.property: Bacterial Biotransformation
result: Compound NOT metabolized

compound: CNCC[C@H](Oc1cccc2ccccc12)c1cccs1 [DULOXETINE]
reported.property: Bacterial Biotransformation
result: Compound NOT metabolized

compound: C[N+]12CCC(CC1)C(OC(=O)C(O)(c1ccccc1)c1ccccc1)C2.[Br-] (stereo not given) [CLIDINIUM BROMIDE]
reported.property: Bacterial Biotransformation
result: Compound metabolized

compound: CC(C)(C)N.CCC[C@H](N[C@@H](C)C(=O)N1[C@H](C(=O)O)C[C@@H]2CCCC[C@@H]21)C(=O)OCC [PERINDOPRIL ERBUMINE]
reported.property: Bacterial Biotransformation
result: Compound metabolized

compound: CC(C)(C)NC[C@H](O)COc1nsnc1N1CCOCC1.O=C(O)/C=C\C(=O)O [TIMOLOL MALEATE]
reported.property: Bacterial Biotransformation
result: Compound NOT metabolized

compound: O=C([O-])C[C@H](O)C[C@H](O)/C=C/c1c(C2CC2)nc2ccccc2c1-c1ccc(F)cc1.O=C([O-])C[C@H](O)C[C@H](O)/C=C/c1c(C2CC2)nc2ccccc2c1-c1ccc(F)cc1.[Ca+2] [PITAVASTATIN CALCIUM]
reported.property: Bacterial Biotransformation
result: Compound NOT metabolized
